Biological target: mouse AHR (mAHR B1-allele) (Mus musculus, UniProt P30561, M589L/N533S/P471L)
Sequence (P30561 10-805 P471L/N533S/M589L): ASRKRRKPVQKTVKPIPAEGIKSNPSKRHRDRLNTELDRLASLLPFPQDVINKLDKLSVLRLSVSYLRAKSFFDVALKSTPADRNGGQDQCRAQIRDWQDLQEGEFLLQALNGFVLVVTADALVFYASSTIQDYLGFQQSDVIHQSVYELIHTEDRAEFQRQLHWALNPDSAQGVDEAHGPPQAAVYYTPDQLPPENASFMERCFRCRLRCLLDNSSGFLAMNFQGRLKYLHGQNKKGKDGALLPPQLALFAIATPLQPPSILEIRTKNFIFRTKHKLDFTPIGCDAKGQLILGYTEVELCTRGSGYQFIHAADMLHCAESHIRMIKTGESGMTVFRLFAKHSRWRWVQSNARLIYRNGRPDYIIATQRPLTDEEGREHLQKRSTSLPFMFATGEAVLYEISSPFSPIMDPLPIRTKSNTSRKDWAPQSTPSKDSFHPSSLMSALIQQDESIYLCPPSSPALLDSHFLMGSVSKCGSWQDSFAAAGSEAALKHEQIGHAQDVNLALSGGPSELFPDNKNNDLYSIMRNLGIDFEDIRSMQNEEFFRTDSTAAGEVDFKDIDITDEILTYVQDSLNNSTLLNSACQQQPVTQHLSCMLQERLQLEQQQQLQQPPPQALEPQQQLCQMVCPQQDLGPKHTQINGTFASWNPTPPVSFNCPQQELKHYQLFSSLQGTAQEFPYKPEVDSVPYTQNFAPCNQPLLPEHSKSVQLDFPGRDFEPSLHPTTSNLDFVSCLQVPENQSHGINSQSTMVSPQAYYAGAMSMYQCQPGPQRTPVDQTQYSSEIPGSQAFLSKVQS
Assay: cell-based
Conditions: EC50 of AHR activation, COS-1 cells expressing mAHR, luciferase reporter, 4 hours
pEC50: −log10 of the molar value.
OUTCOME MEASURE: pEC50

Exam item: What is its pEC50 for mouse AHR (mAHR B1-allele) (Mus musculus, UniProt P30561, M589L/N533S/P471L)? Entry: Nc1ccccc1C(=O)CC(N)C(=O)O (stereo not shown)
Marked response: ~4.89

---

Biological target: mouse AHR (mAHR B1-allele) (Mus musculus, UniProt P30561, M589L/N533S/P471L)
Assay: cell-based
EC50 for assorted molecules
Don't forget the unit after the number, please.

{"MOLECULE": "C1=Cc2c3ccccc3nc3nc4ccccc4c(c23)N1", "EC50": "0.378 nM"}

Now examine the next entry.
Exam item: Fill blank: measured EC50 of the molecule Nc1ccccc1C(=O)CC(N)C(=O)O (centres unmarked) is ____.
Marked response: 2.7 nM
